Listing of recorded pIC50 by entry.
target: Recombinant Human ENPP-2/Autotaxin (Homo sapiens, UniProt Q13822); experiment: LysoPLD activity measurement (autotaxin enzyme inhibition, choline release, TOOS reagent); conditions: LysoPLD inhibitory activity; substrate 14:0 LysoPC; absorbance at 555 nm
pIC50: −log10 of the molar value.
PARAMETER: pIC50

| COMPOUND SMILES | PARAMETER | VALUE REPORTED |
| --- | --- | --- |
| O=C(O)c1cccc(Cn2c(=O)n(-c3ccc(N4CCC(F)(F)CC4)cc3)c3cc(Cl)ccc32)c1 | pIC50 | 7.00 to 8.00 |
| O=C(O)c1cccc(Cn2c(=O)n(-c3ccc(C(=O)N4CCOCC4)cc3)c3cc(Cl)ccc32)c1 | pIC50 | 7.00 to 8.00 |
| O=C(O)c1cccc(C2(n3c(=O)n(-c4ccc(C(=O)N5CCC(F)(F)CC5)cc4)c4cc(Cl)ccc43)CC2)c1F | pIC50 | > 8.00 |
| O=C(O)c1cccc(C2(n3c(=O)n(-c4ccc(Cn5ccc(C(F)(F)F)n5)cc4)c4cc(Cl)ccc43)CC2)c1 | pIC50 | 6.00 to 7.00 |

* * *

biological target: Recombinant Human ENPP-2/Autotaxin (Homo sapiens, UniProt Q13822); experiment: LysoPLD activity measurement (autotaxin enzyme inhibition, choline release, TOOS reagent); settings: LysoPLD inhibitory activity; substrate 14:0 LysoPC; absorbance at 555 nm
PARAMETER: IC50

| COMPOUND SMILES | VALUE REPORTED |
| --- | --- |
| O=C(O)c1cccc(C2(n3c(=O)n(-c4ccc(S(=O)(=O)N5CCCC5)cc4)c4cc(Cl)ccc43)CC2)c1 | < 10 nM |
| O=C(O)c1cccc(Cn2c(=O)n(-c3ccc(C(=O)N4CCCC4)cc3)c3cc(Cl)cnc32)c1 | 10 to 100 nM |
| COC1CCN(C(=O)c2ccc(-n3c(=O)n(Cc4cccc(C(=O)O)c4)c4ccc(Cl)cc43)cc2)CC1 | < 10 nM |
| O=C(O)c1cc(F)cc(C2(n3c(=O)n(-c4ccc(N5CCC(F)(F)CC5)cc4)c4cc(Cl)ccc43)CC2)c1 | < 10 nM |
| CN(C)c1ccc(-n2c(=O)n(Cc3cccc(C(=O)O)c3F)c3ccc(Cl)cc32)cc1 | 10 to 100 nM |
| CCC(=O)N1CCC(c2ccc(-n3c(=O)n(Cc4cccc(C(=O)O)c4F)c4ccc(Cl)c(F)c43)cc2)CC1 | 10 to 100 nM |
| O=C(O)c1cccc(C2(n3c(=O)n(-c4ccc(-c5nnc(C6CCCCCC6)o5)cc4)c4cc(Cl)ccc43)CC2)c1 | 10 to 100 nM |

* * *

target: Recombinant Human ENPP-2/Autotaxin (Homo sapiens, UniProt Q13822); experiment: LysoPLD activity measurement (autotaxin enzyme inhibition, choline release, TOOS reagent); details: LysoPLD inhibitory activity; substrate 14:0 LysoPC; absorbance at 555 nm
PARAMETER: IC50

| COMPOUND SMILES | VALUE REPORTED |
| --- | --- |
| O=C(O)c1cccc(C2(n3c(=O)n(-c4ccc(N5CCC(F)(F)CC5)cc4)c4cc(Cl)ccc43)CC2)c1 | < 0.01 µM |
| O=C(O)c1cccc(C2(n3c(=O)n(-c4ccc(C(=O)N5CCCC5)cc4)c4cc(Cl)ccc43)CC2)c1F | < 0.01 µM |
| CN(C)c1ccc(-n2c(=O)n(Cc3cccc(C(=O)O)c3)c3ncc(Cl)cc32)cc1 | 0.1 to 1 µM |
| O=C(O)c1cccc(C2(n3c(=O)n(-c4ccc(C5CCOCC5)cc4)c4cc(Cl)ccc43)CC2)c1 | < 0.01 µM |
| O=C(O)c1cccc(C2(n3c(=O)n(-c4ccc(-c5nnc(C6CCOCC6)o5)cc4)c4cc(Cl)ccc43)CC2)c1 | < 0.01 µM |
| CN(C)C(=O)c1ccc(-n2c(=O)n(Cc3cccc(C(=O)O)c3F)c3ccc(Cl)cc32)cc1 | < 0.01 µM |
| O=C(O)c1ccc(F)c(Cn2c(=O)n(-c3ccc(N4CCOCC4)cc3)c3c(F)c(Cl)ccc32)c1 | 0.01 to 0.1 µM |
| O=C(O)c1ccc(Cn2c(=O)n(-c3ccc(N4CCOCC4)cc3)c3c(F)c(Cl)ccc32)cc1 | 0.1 to 1 µM |
| O=C(O)c1cccc(Cn2c(=O)n(-c3ccc(N4CCOCC4)cc3)c3c(F)c(Cl)ccc32)c1F | < 0.01 µM |
| CC(C)OC(=O)N1CCN(c2ccc(-n3c(=O)n(Cc4cccc(C(=O)O)c4)c4ccc(Cl)cc43)cc2)CC1 | 0.01 to 0.1 µM |
| O=C(O)c1cc(F)cc(C2(n3c(=O)n(-c4ccc(C5(O)CCC5)cc4)c4cc(Cl)ccc43)CC2)c1 | < 0.01 µM |
| O=C(O)c1cc(F)cc(C2(n3c(=O)n(-c4ccc(N5CCOCC5)cc4)c4cc(Cl)ccc43)CC2)c1 | < 0.01 µM |
| O=C(O)c1cccc(C2(n3c(=O)n(-c4ccc(N5CC(O)C5)cc4)c4cc(Cl)ccc43)CC2)c1 | < 0.01 µM |
| O=C(O)c1cc(F)cc(C2(n3c(=O)n(-c4ccc(N5CC6(CCC6)C5)cc4)c4cc(Cl)ccc43)CC2)c1 | 0.01 to 0.1 µM |
| CCCn1cc(-c2ccc(-n3c(=O)n(C4(c5cccc(C(=O)O)c5)CC4)c4ncc(Cl)cc43)cc2)cn1 | < 0.01 µM |

* * *

biological target: Recombinant Human ENPP-2/Autotaxin (Homo sapiens); test: LysoPLD activity measurement (autotaxin enzyme inhibition, choline release, TOOS reagent); settings: LysoPLD inhibitory activity; substrate 14:0 LysoPC; absorbance at 555 nm
// values below are reported IC50
PARAMETER: IC50

| COMPOUND SMILES | VALUE REPORTED |
| --- | --- |
| O=C(O)c1cccc(C2(n3c(=O)n(-c4ccc(CC(=O)N5CCCCC5)cc4)c4cc(Cl)ccc43)CC2)c1 | < 10 nM |
| CN1Cc2cc(-n3c(=O)n(Cc4cccc(C(=O)O)c4F)c4ccc(Cl)cc43)ccc2C1=O | 10 to 100 nM |
| O=C(O)c1cccc(C2(n3c(=O)n(-c4ccc(N5CC(F)(F)C5)cc4)c4cc(Cl)ccc43)CC2)c1 | < 10 nM |
| CC(C)Oc1ccc(-n2c(=O)n(Cc3cccc(C(=O)O)c3F)c3ccc(Cl)cc32)cc1 | 10 to 100 nM |
| Cc1ccc2c(n1)n(-c1ccc(N(C)C)cc1)c(=O)n2Cc1cccc(C(=O)O)c1 | 100 to 1000 nM |
| CS(=O)(=O)Nc1ccc(-n2c(=O)n(Cc3cccc(C(=O)O)c3)c3ccc(Cl)cc32)cc1 | 10 to 100 nM |
| CN1CCOc2cc(-n3c(=O)n(C4(c5cc(F)cc(C(=O)O)c5)CC4)c4ccc(Cl)cc43)ccc21 | < 10 nM |
| O=C(O)c1cccc(Cn2c(=O)n(-c3ccc(C(=O)NCC(F)(F)F)cc3)c3cc(Cl)ccc32)c1 | 100 to 1000 nM |
| O=C(O)c1cccc(Cn2c(=O)n(-c3ccc(C(=O)N4CCCC4)cc3)c3cc(Cl)ccc32)c1 | < 10 nM |
| CC(C)(C)c1ccc(-n2c(=O)n(Cc3cccc(C(=O)O)c3)c3ccc(Cl)cc32)cc1 | 100 to 1000 nM |
| O=C(O)c1cc(F)cc(C2(n3c(=O)n(-c4ccc(N5CC6CCC(C5)O6)cc4)c4cc(Cl)ccc43)CC2)c1 | < 10 nM |
| O=C(O)c1cccc(Cn2c(=O)n(-c3cnn(CC4CC4)c3)c3cc(Cl)ccc32)c1 | 100 to 1000 nM |
| O=C(O)c1cc(Cn2c(=O)n(-c3ccc(N4CCOCC4)cc3)c3cc(Cl)ccc32)cc(F)c1F | 10 to 100 nM |
| O=C(O)c1cc(F)cc(C2(n3c(=O)n(-c4ccc(N5CCOCC5)cc4)c4cc(Cl)cnc43)CC2)c1 | < 10 nM |
| O=C(O)c1cccc(C2(n3c(=O)n(-c4ccc(C5CCOCC5)cc4)c4cc(Cl)ccc43)CCC2)c1 | 10 to 100 nM |
| O=C(O)c1cccc(Cn2c(=O)n(-c3ccccc3)c3cc(Cl)ccc32)c1F | 100 to 1000 nM |
| O=C(O)c1cccc(Cn2c(=O)n(-c3ccc(N4CCC(F)(F)CC4)nc3)c3cc(Cl)ccc32)c1 | 10 to 100 nM |
| CCCn1cc(-n2c(=O)n(Cc3cccc(C(=O)O)c3F)c3ccc(Cl)c(F)c32)cn1 | 10 to 100 nM |
| O=C(O)c1cccc(Cn2c(=O)n(-c3ccc(C(=O)N4CCCCC4)cc3)c3cc(Cl)ccc32)c1 | < 10 nM |
| O=C(O)c1cccc(C2(n3c(=O)n(-c4ccc(C(=O)N5CCC(F)(F)CC5)cc4)c4cc(Cl)ccc43)CC2)c1 | < 10 nM |
| CC(C)(O)Cc1ccc(-n2c(=O)n(C3(c4cccc(C(=O)O)c4)CC3)c3ccc(Cl)cc32)cc1 | < 10 nM |
| O=C(O)c1cccc(Cn2c(=O)n(-c3cnn(C4CCOCC4)c3)c3cc(Cl)ccc32)c1 | 100 to 1000 nM |
| O=C(O)c1cccc(Cn2c(=O)n(-c3ccc(OCC4CC4)cc3)c3cc(Cl)ccc32)c1 | 100 to 1000 nM |
| CN(C)c1ccc(-n2c(=O)n(Cc3cccc(C(=O)O)c3)c3c(F)cc(Cl)cc32)cc1 | 10 to 100 nM |
| O=C(O)c1cccc(Cn2c(=O)n(-c3ccc(O)cc3)c3cc(Cl)ccc32)c1 | 100 to 1000 nM |
| CC(C)(CF)c1ccc(-n2c(=O)n(C3(c4cccc(C(=O)O)c4)CC3)c3ccc(Cl)cc32)cc1 | < 10 nM |
| CC(=O)N1CCC2(CC1)CN(c1ccc(-n3c(=O)n(C4(c5cccc(C(=O)O)c5)CC4)c4ccc(Cl)cc43)cc1)C2 | < 10 nM |
| CS(=O)(=O)c1ccc(-n2c(=O)n(C3(c4cccc(C(=O)O)c4)CC3)c3ccc(Cl)cc32)cc1 | < 10 nM |
| CN1CCN(c2ccc(-n3c(=O)n(Cc4cccc(C(=O)O)c4)c4ccc(Cl)cc43)cc2)CC1 | 100 to 1000 nM |
| O=C(O)c1cc(Cn2c(=O)n(-c3ccc(N4CCOCC4)cc3)c3c(F)c(Cl)ccc32)on1 | 100 to 1000 nM |
